# Tested on: CCRIS mutagenicity, Ames/micronucleus/aberration tests
# Method description: CCRIS mutagenicity studies
# Measurement conditions: Test System: AMES SALMONELLA TYPHIMURIUM; Strain/Indicator: TA100; Metabolic Activation: NONE; Method: STANDARD PLATE
Active and inactive are the calls of the source. The rule behind the calls is not given here.
Hi there, use one of these labels in your reply, thanks! 1 for active, 0 for inactive

Query :: Field: outcome | Entry: O=[N+]([O-])c1cc2c(ccc3cc(N(CCCl)CCCl)ccc32)o1
Result :: 1

Query :: Hey, what did the test say about O=C1C=CC(=O)c2ccccc21 ?
Result :: 0

Query :: What is the recorded call for this compound in the test? Cc1ccc([N+](=O)[O-])c2c(NCCCN(C)C)c3ccccc3nc12
Result :: 1

Query :: Dear all, I need the recorded test outcome for Nc1snc2ccc([N+](=O)[O-])cc12 , thank you.
Result :: 1

Query :: Field: outcome | Entry: CC(=O)OCCCCCCCCONC(=O)c1ccccc1
Result :: 1

Query :: Recorded test call requested for Nc1ccc(N=Nc2ccc3c(c2)C(=O)/C(=N/Nc2ccc(Nc4ccc(N/N=C5/C(=O)c6cc(N=Nc7ccc(N)cc7N)ccc6C=C5S(=O)(=O)O)cc4S(=O)(=O)O)cc2)C(S(=O)(=O)O)=C3)c(N)c1
Result :: 0

Query :: Per the assay record, what outcome was assigned to O=C(CCl)Nc1snc2ccc(Cl)cc12 ?
Result :: 0

----------
# Test system: CCRIS mutagenicity, Ames/micronucleus/aberration tests
# Method description: CCRIS mutagenicity studies
# Measurement conditions: Test System: AMES SALMONELLA TYPHIMURIUM; Strain/Indicator: TA1537; Metabolic Activation: RAT, LIVER, S-9, AROCLOR 1254; Method: STANDARD PLATE
Calls of active or inactive are those of the source. How the calls were made is not given here.
Form entry, call: pick from active, inactive

Query :: Record request — test call for Nc1ccc(O)c([N+](=O)[O-])c1
Result :: inactive

Query :: # fetch the recorded call for O=C(O)c1cc(I)cc2cccnc12 here
Result :: inactive

Query :: What did this assay record as the result for CC(C)[C@@H]1CC[C@@H](C)C[C@H]1O ?
Result :: inactive

Query :: For CC(C)C1=CC2=CC[C@@H]3[C@](C)(CCC[C@@]3(C)C(=O)O)[C@H]2CC1 , which call appears in the assay record?
Result :: inactive

Query :: What was the test verdict on O=C1c2ccccc2CCc2ccccc21 ?
Result :: inactive

Query :: Field: outcome | Entry: CCC(=O)N(c1ccc(Cl)c(Cl)c1)[C@@H]1CCC[C@H]1N(C)C
Result :: inactive

Query :: Would you mind telling me which call this test gave c1ccccc1 ?
Result :: inactive

Query :: Give the logged outcome of this assay for the following compound: O=CC(O)C(O)C(O)CO (stereo unspecified)
Result :: inactive

Query :: Would you mind telling me which call this test gave Cc1ccc(OS(=O)(=O)c2cccc3cccnc23)c([N+](=O)[O-])c1 ?
Result :: active

Query :: Any idea what this test logged for Nc1ccc(N=Nc2ccc3c(c2)C(=O)/C(=N/Nc2ccc(Nc4ccc(N/N=C5/C(=O)c6cc(N=Nc7ccc(N)cc7N)ccc6C=C5S(=O)(=O)O)cc4S(=O)(=O)O)cc2)C(S(=O)(=O)O)=C3)c(N)c1 ?
Result :: active

Query :: Hi, sorry to bother you, what did the test record for O=NN1CCC[C@H]1c1cccnc1 ?
Result :: inactive

Query :: Identify the outcome logged in this assay for the compound shown: O=C(O)c1ccc(N=Nc2ccc(O)c(C(=O)O)c2)cc1
Result :: inactive

Query :: Test call for this compound, please: O=C(Cl)c1ccc([N+](=O)[O-])cc1
Result :: inactive

Query :: What did the test return for O=c1oc2ccc([N+](=O)[O-])cc2c2ccccc12 ?
Result :: active

Query :: I'd appreciate the recorded outcome for O=C(OCc1ccc(Cl)cc1)c1cccc2cccnc12 from this test.
Result :: inactive

Query :: Recorded call for Cc1c(N)c(=O)n(-c2ccccc2)n1C ?
Result :: inactive

Query :: Given CCC(C)(C)OC , state the outcome it received in this test.
Result :: inactive

Query :: Hi, sorry to bother you, what did the test record for O=S(=O)(Nc1ccc(Cl)cc1)c1cccc2cccnc12 ?
Result :: inactive

Query :: So what was the verdict on CN1CCC=C2c3nc(N)sc3CCC21 (stereo unspecified) in this test?
Result :: inactive

Query :: GET /call?item= NCCNCCNCCNCCN returns the recorded outcome of this test.
Result :: inactive

Query :: Which outcome did this test record for the compound COc1cc(N)c([N+](=O)[O-])cc1N ?
Result :: active

Query :: Query: recorded result category for C[n+]1c2ccccc2nc2ccccc21 in this test
Result :: active

Query :: Give the logged outcome of this assay for the following compound: Nc1c(S(=O)(=O)O)cc(NC2CCCCC2)c2c1C(=O)c1ccccc1C2=O
Result :: inactive

Query :: Please state the recorded outcome for this compound: CCc1cccc2c3c([nH]c12)C(CC)(CC(=O)O)OCC3 (stereo unspecified)
Result :: inactive

Query :: Hi team, can someone confirm the assay call for CNC(=O)Oc1ccccc1OC(C)C ?
Result :: inactive

Query :: Dear all, I need the recorded test outcome for CN(CCO)C(=O)Nc1ccccc1 , thank you.
Result :: inactive

----------
# Test system: CCRIS mutagenicity, Ames/micronucleus/aberration tests
# Method description: CCRIS mutagenicity studies
# Measurement conditions: Test System: AMES SALMONELLA TYPHIMURIUM; Strain/Indicator: TA102; Metabolic Activation: RAT, LIVER, S-9, AROCLOR 1254; Method: STANDARD PLATE
The source made the active and inactive calls. The rule behind the calls is not given here.
A correct response names exactly one class from active, inactive

Query :: What did this assay record as the result for COCC=O ?
Result :: inactive

Query :: Lab log entry: O=S(c1cc(Cl)cc(Cl)c1O)c1cc(Cl)cc(Cl)c1O — outcome as called in the assay?
Result :: inactive

Query :: For O=C1c2ccccc2C(=O)c2ccccc21 , what call appears in the results of this test?
Result :: inactive

Query :: Tell me the recorded outcome of this test for CCCCC(CC)COC(=O)c1ccccc1C(=O)O (stereo not drawn) .
Result :: inactive

Query :: Query: recorded result category for Clc1ccc2c(c1)C(c1ccccc1)=NCc1nncn1-2 in this test
Result :: inactive

Query :: Hi, do you know how CS(=N)(=O)CCC(N)C(=O)O (stereo not drawn) came out in this test?
Result :: inactive

Query :: Look up the recorded call for ClC1C(Cl)C(Cl)C(Cl)C(Cl)C1Cl (stereo not drawn) in this test.
Result :: inactive

Query :: How did this test come out for Cc1c2c3ccccc3nc-2n(C)c2ccccc12 ?
Result :: active

----------
# Test system: CCRIS mutagenicity, Ames/micronucleus/aberration tests
# Method description: CCRIS mutagenicity studies
# Measurement conditions: Test System: AMES SALMONELLA TYPHIMURIUM; Strain/Indicator: TA97; Metabolic Activation: RAT, LIVER, S-9, AROCLOR 1254 (10%); Method: PREINCUBATION
Activity calls are given as the source filed them. No rule for the calls is given here.
Pick one: T (active), F (inactive)

Query :: Returns: the outcome recorded for O=C(O)c1ccc(/C=N/n2nnc3c([nH]c4ccccc43)c2=O)cc1 in this assay.
Result :: T

Query :: Recorded call for Nc1cccc(O)c1 ?
Result :: F

Query :: So what was the verdict on CCC(C)C(C)CO (configuration not stated) in this test?
Result :: F

Query :: Identify the outcome logged in this assay for the molecule shown: Cc1ccc(C)o1
Result :: F

Query :: Please let me know the test result on file for Cc1cc(Cl)ccc1O .
Result :: F

Query :: Called result for CC/C=C1\OC(=O)c2ccccc21
Result :: F

Query :: Could you please tell me the result logged for CCN(CC)CCCC(C)Nc1c2ccc(Cl)cc2nc2ccc(OC)cc12 (configuration not stated) in this assay?
Result :: T

Query :: // outcome(item) with item = c1ccc(Nc2ccc3ccccc3c2)cc1
Result :: F

Query :: # fetch the recorded call for Nc1ccc(O)c([N+](=O)[O-])c1 here
Result :: F

Query :: Field: outcome | Entry: O=c1c2ccc3c4c(ccc(c24)c2nc4ccccc4n12)c(=O)n1c2ccccc2nc31
Result :: F

Query :: Returns: the outcome recorded for O=C1c2ccccc2C(=O)C1(O)O in this assay.
Result :: F

Query :: Hi team, can someone confirm the assay call for O=Cc1ccc(Cl)c(Cl)c1 ?
Result :: F

Query :: Recorded test call requested for O=C1OC(=O)c2cc([N+](=O)[O-])ccc21
Result :: T

Query :: Which outcome was entered for the molecule CNc1ccc(N(CCO)CCO)cc1[N+](=O)[O-] in this test?
Result :: T

Query :: Give the logged outcome of this assay for the following molecule: C=CC(=O)OCCBr
Result :: F

Query :: Record request — test call for Cc1ccc(Br)cc1
Result :: F

Query :: Hi team, can someone confirm the assay call for Nc1cc(Cl)ccc1Cl ?
Result :: F

Query :: Please share the test call associated with CN(C)c1ccc(N=NS(=O)(=O)O)cc1 .
Result :: T

Query :: Give the logged outcome of this assay for the following molecule: COc1cc([N+](=O)[O-])ccc1N=NC(C(C)=O)C(=O)Nc1ccccc1OC (configuration not stated)
Result :: F

Query :: Check the results log: what was the call for Cc1ccccc1Br ?
Result :: F

Query :: What was the test verdict on CCC(C)Nc1ccc(NC(C)CC)cc1 (configuration not stated) ?
Result :: F

Query :: Please state the recorded outcome for this molecule: ClCC(Br)CBr (configuration not stated)
Result :: T

Cited source: PubChem BioAssay AID1259407
